Biological target: human H3 receptor (SK-N-MC cells) (Homo sapiens)
Construct: expressed in transfected cells; host or cells: SK-N-MC sublines with CRE-beta-galactosidase reporter
Sequence (Q9Y5N1 whole entry): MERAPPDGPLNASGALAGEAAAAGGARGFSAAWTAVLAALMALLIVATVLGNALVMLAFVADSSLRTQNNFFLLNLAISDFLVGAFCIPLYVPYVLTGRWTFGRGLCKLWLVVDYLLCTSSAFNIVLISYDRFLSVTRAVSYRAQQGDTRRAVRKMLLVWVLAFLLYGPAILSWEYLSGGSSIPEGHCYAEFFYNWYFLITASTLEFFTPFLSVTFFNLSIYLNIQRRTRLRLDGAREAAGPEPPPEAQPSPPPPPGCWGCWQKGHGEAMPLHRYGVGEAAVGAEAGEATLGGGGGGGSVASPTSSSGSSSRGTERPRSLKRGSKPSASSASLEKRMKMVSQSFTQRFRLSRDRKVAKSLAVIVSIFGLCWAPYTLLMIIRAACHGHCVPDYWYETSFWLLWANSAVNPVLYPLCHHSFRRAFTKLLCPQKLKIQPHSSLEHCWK
Assay: Cyclic AMP accumulation (β-galactosidase reporter, Schild analysis vs histamine)
Format: cell-based
Settings: read-out: H3 pA2 (converted)
Parameter: Kb (nM)

Molecule	Kb / nM
FC(F)(F)c1cccc([C@H]2CN3CCC[C@H]3c3cc(OCCCN4CCCCC4)ccc32)c1 (relative stereo) [Example 67]	0.501
Clc1ccccc1[C@@H]1CN2CCC[C@H]2c2cc(OCCCN3CCCCC3)ccc21 (relative stereo) [Example 12A]	1.26
FC(F)(F)c1ccc([C@@H]2CN3CCC[C@H]3c3cc(OCCCN4CCCCC4)ccc32)cc1 (relative stereo) [Example 7B]	6.31

A: Oc1ccccc1[C@H]1CN2CCC[C@H]2c2cc(OCCCN3CCCCC3)ccc21 (relative stereo) [Example 16]
B: COc1ccc([C@H]2CN3CCC[C@H]3c3cc(OCCCN4CCOCC4)ccc32)cc1 [Example 91]
C: O=[N+]([O-])c1ccc([C@H]2CN3CCC[C@H]3c3cc(OCCCN4CCCCC4)ccc32)cc1 (relative stereo) [Example 2A]
D: Clc1ccc([C@@H]2CN3CCC[C@H]3c3cc(OCCCN4CCCCC4)ccc32)cc1Cl (relative stereo) [Example 6A]
# desc sort on Kb across 4 molecules A ranking is expressed here by listing the labels in the requested order. D, B, A, C

* * *

Dear all, this message contains Ki results, target or system cloned human H3 receptor, stably expressed in SK-N-MC cells (Homo sapiens).
Parameter: Ki (nM)

a: COc1ccc(OC)c([C@H]2CN3CCC[C@H]3c3cc(OCCCN4CCCCC4)ccc32)c1 (relative stereo)
b: CSc1ccc([C@@H]2CN3CCC[C@H]3c3ccc(C#CCCN4CCCCC4)cc32)cc1 (relative stereo) [Example 97A]
c: Oc1ccc([C@H]2CN3CCC[C@H]3c3cc(OCCCN4CCOCC4)ccc32)cn1 (relative stereo) [Example 51B]
d: Clc1ccccc1[C@@H]1CN2CCC[C@H]2c2cc(OCCCN3CCCCC3)ccc21 (relative stereo) [Example 12A]
Could you please order the items by Ki, going from the lowest number to the highest? State the ranking by listing the labels in the requested order. a, d, b, c

1: Ic1ccc([C@@H]2CN3CCC[C@H]3c3cc(OCCCN4CCCCC4)ccc32)cc1 (relative stereo) [Example 35A]
2: O=[N+]([O-])c1cccc([C@H]2CN3CCC[C@H]3c3cc(OCCCN4CCCCC4)ccc32)c1 (relative stereo)
Rank 1 against 2 by their Ki values and give the higher one. Kindly give the label for the entry you pick. 1
(1: 4 nM, 2: 1 nM)

A: c1ccc([C@H]2CN3CCC[C@H]3c3cc(OCCCN4CCOCC4)ccc32)nc1 (relative stereo)
B: FC(F)(F)c1ccc([C@@H]2CN3CCC[C@H]3c3cc(OCCCN4CCCCC4)ccc32)cc1 (relative stereo)
C: CSc1ccc(C2CN3CCCC3c3cccc(OCCCN4CCCCC4)c32)cc1 (centres unmarked) [Example 39C]
D: Clc1ccccc1[C@H]1CN2CCC[C@H]2c2cccc(OCCCN3CCCCC3)c21 (relative stereo) [Example 12D]
Hi! Can you put these in order of Ki, lowest number first? Answer format: the labels, ordered as requested. B, A, C, D

* * *

Entries with their measured Ki, system cloned human H3 receptor, stably expressed in SK-N-MC cells (Homo sapiens):
Parameter: Ki (nM)

Consider the worked cases shown below.
Molecule	Target or test system	Ki / nM
C[Si](C)(C)C#Cc1cccc([C@H]2CN3CCC[C@H]3c3cc(OCCCN4CCCCC4)ccc32)c1 (relative stereo)	cloned human H3 receptor, stably expressed in SK-N-MC cells (Homo sapiens)	7
N#Cc1ccc([C@H]2CN3CCC[C@H]3c3cc(OCCCN4CCCCC4)ccc32)cc1 (relative stereo) [Example 41B]	cloned human H3 receptor, stably expressed in SK-N-MC cells (Homo sapiens)	1

a: Clc1ccc([C@H]2CN3CCC[C@H]3c3cc(OCCCN4CCCCC4)ccc32)cc1 (relative stereo) [Example 66B]
b: CSc1ccc([C@H]2CN3CCC[C@H]3c3cc(OCCCN4CCCCC4)ccc32)cc1 (relative stereo) [Example 39A]
Identify the entry with the smaller Ki: a or b . State your choice using its label. a
